Every entry's value here was drawn from patent US20250368745A1.

- ASSAY SYSTEM: T1, human IL-18BP (interleukin-18 binding protein, isoform A) (human, UniProt O95998 31-194)
- T1 construct: cell assays used Sino Biological 10357-H08H; PBMC assay 1 relies on endogenous IL-18BP; UniProt number is printed as 095998; also called hIL-18BP
- T1 sequence: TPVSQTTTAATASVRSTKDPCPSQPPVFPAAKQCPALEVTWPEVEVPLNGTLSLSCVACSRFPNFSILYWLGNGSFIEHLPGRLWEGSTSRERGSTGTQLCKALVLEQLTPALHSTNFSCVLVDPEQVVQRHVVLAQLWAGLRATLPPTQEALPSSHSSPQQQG
- ASSAY EXPLANATION: BLI single-concentration screen, apparent KD
RECORDED METRIC: Kd (nM)
Give bare numbers, in nM.

Input: May I ask what Kd has been recorded for heavy chain library variant C34E (antibody, V domains shown) VH: QVQLQESGPGLVKPSQTLSLTCTVSGYSITSDYNEHWIRQPPGKGLEWIGYIHYSGSTNYNPSLKSRVTISRDTSKNQFSLKLSSVTAADTAVYYCARNYGSIYVNYFDYWGQGTLVTVSS VL: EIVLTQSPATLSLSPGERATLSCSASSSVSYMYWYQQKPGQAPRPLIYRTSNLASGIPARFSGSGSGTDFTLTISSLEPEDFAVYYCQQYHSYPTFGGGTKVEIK ?
Output: 0.9
